MEASUREMENT DESCRIPTION: Mice pharmacokinetic evaluation (LC-MS/MS of plasma)
Format: in vivo, ICR mice
PROTOCOL CONDITIONS: male, ICR, mouse, plasma, iv, 1 mg/kg, IV 1.0 mg/kg, Mean ± SD, n = 3
QUANTITY NAME: half-life (h)
// note: answer is a bare numeric in h

What value of half-life has been reported for the following compound? CSc1nccc(N2CCC(N(C)Cc3ccc(C#N)cc3)CC2)n1 [Example 36]
1.11

---

MEASUREMENT DESCRIPTION: Mice pharmacokinetic evaluation (LC-MS/MS of plasma)
Assay type: in vivo, ICR mice
PROTOCOL CONDITIONS: male, ICR, mouse, plasma, iv, 1 mg/kg, intravenous 1.0 mg/kg, 0.17 h, Mean; read-out: Plasma concentration of active compound
QUANTITY NAME: concentration at 0.17 h (ng/mL)
// note: answer is a bare numeric in ng/mL

What value of concentration at 0.17 h has been reported for the following compound? CSc1nccc(N2CCC(N(C)Cc3ccc(C#N)cc3)CC2)n1 [Example 36]
62.8
